Origin of measurements: ChEMBL document CHEMBL4052828

Catalogue of logP readings, one per entry.
Experiment: Lipophilicity, log P of the compound
Format: physicochemical
Conditions: octanol/water

{"mol": "O=C(Nc1ccc(CN2CCNCC2)cc1)c1n[nH]cc1Nc1ncnc2sccc12", "logP": 2.65}
{"mol": "O=C(Nc1ccc(CN2CCNCC2)cc1)c1n[nH]cc1Nc1ncnc2[nH]ccc12", "logP": 1.22}

====

Assay: Toxicity in ICR mouse administered via gavage measured for 12 days
Details: in vivo, po
reported metric: LD50 at 288 h (mg/kg)

{"mol": "CN1CCN(Cc2ccc(NC(=O)c3n[nH]cc3Nc3ncnc4[nH]ccc34)cc2)CC1", "reported metric": "LD50 at 288 h", "reported value": 186}

====

Catalogue of half-life readings, one per entry.
Assay: Terminal half life in dog liver microsomes by LC-MS/MS analysis
Type: ADME, Canis lupus familiaris, microsome
Conditions: read-out: beta t1/2 (converted)

{"mol": "O=C(Nc1ccc(CN2CCOCC2)cc1)c1n[nH]cc1Nc1ncnc2sccc12", "unit info": "min", "half-life": 1.5}
{"mol": "CN1CCN(Cc2ccc(NC(=O)c3n[nH]cc3Nc3ncnc4[nH]ccc34)cc2)CC1", "unit info": "min", "half-life": 15.4}

====

Catalogue of IC50 readings, one per entry.
Molecular target: CDK2/Cyclin A1 (Homo sapiens, UniProt P24941)
Test: Inhibition of human CDK2/Cyclin A1 using histone H1 as substrate preincubated for 20 mins followed by [gamma-33P]-ATP addition measure after 120 mins by filter binding method

{"mol": "CCc1cc2c(Nc3c[nH]nc3C(=O)Nc3ccc(CN4CCN(C)CC4)cc3)ncnc2s1", "unit info": "nM", "IC50": 1.87}
{"mol": "O=C(Nc1ccc(CN2CCOCC2)cc1)c1n[nH]cc1Nc1ncnc2ccccc12", "unit info": "nM", "IC50": 5.3}
{"mol": "COc1ccc2ncnc(Nc3c[nH]nc3C(=O)Nc3ccc(CN4CCOCC4)cc3)c2c1", "unit info": "nM", "IC50": 29.8}
{"mol": "O=C(Nc1ccc(CN2CCNCC2)cc1)c1n[nH]cc1Nc1ncnc2sccc12", "unit info": "nM", "IC50": 2.08}

====

Experiment: Terminal half life in cynomolgus monkey liver microsomes by LC-MS/MS analysis
Format: ADME, Macaca fascicularis, microsome
Details: read-out: beta t1/2 (converted)
Catalogue of half-life readings, one per entry.

{"mol": "O=C(Nc1ccc(CN2CCOCC2)cc1)c1n[nH]cc1Nc1ncnc2sccc12", "half-life / min": 10.9}
{"mol": "CN1CCN(Cc2ccc(NC(=O)c3n[nH]cc3Nc3ncnc4[nH]ccc34)cc2)CC1", "half-life / min": 51.3}

====

Biological target: CDK2/Cyclin A1 (Homo sapiens) (UniProt P24941+P78396)
Experiment: Inhibition of human CDK2/Cyclin A1 assessed as residual activity at 0.123 uM using histone H1 as substrate preincubated for 20 mins followed by [gamma-33P]-ATP addition measure after 120 mins by filter binding method relative to control
Assay type: protein-complex assay
Label Satisfied when Activity < 60%; otherwise Not satisfied.

{"mol": "CN1CCN(Cc2ccc(NC(=O)c3n[nH]cc3Nc3ccnc4ccccc34)cc2)CC1", "tested on": "CDK2/Cyclin A1 (Homo sapiens) (UniProt P24941+P78396)", "discrete label": "Satisfied"}
{"mol": "COc1ccc2nccc(Nc3c[nH]nc3C(=O)Nc3ccc(CN4CCN(C)CC4)cc3)c2c1", "tested on": "CDK2/Cyclin A1 (Homo sapiens) (UniProt P24941+P78396)", "discrete label": "Satisfied"}
{"mol": "O=C(Nc1ccc(CN2CCOCC2)cc1)c1n[nH]cc1Nc1ccnc2ccccc12", "tested on": "CDK2/Cyclin A1 (Homo sapiens) (UniProt P24941+P78396)", "discrete label": "Satisfied"}
{"mol": "COc1ccc2c(Nc3c[nH]nc3C(=O)Nc3ccc(CN4CCOCC4)cc3)ccnc2c1", "tested on": "CDK2/Cyclin A1 (Homo sapiens) (UniProt P24941+P78396)", "discrete label": "Not satisfied"}
{"mol": "O=C(Nc1ccc(CN2CCOCC2)cc1)c1n[nH]cc1Nc1cc(C(F)(F)F)nc2ccccc12", "tested on": "CDK2/Cyclin A1 (Homo sapiens) (UniProt P24941+P78396)", "discrete label": "Not satisfied"}
